Species on record: Homo sapiens
protocolNotes: Functional inhibition of the GPIIb-IIIa receptor was reflected as its ability to antagonize ADP induced platelet aggregation in human platelet-rich plasma
Type: organism-based
pIC50: −log10 of the molar value. Square brackets hold non-standard residues; d marks the D form. Peptide text beside a SMILES is read from it. Pen = CC(C)(S)[C@H](N)C(=O)O; Mpa = O=C(O)CCS
Reported pIC50 values are given for each entry in this list.

{"columns": ["molecule", "qual", "pIC50"],
 "data": [
  ["N=C(N)c1ccc2[nH]c(C(=O)NCCCCCCCC(=O)O)cc2c1", "<", 4.00],
  ["N=C(N)c1ccc2cc(C(=O)NCCCCCCC(=O)O)[nH]c2c1", "=", 5.89],
  ["CC(C)(S)[C@H](NC(=O)[C@H](CCCN=C(N)N)NC(=O)[C@H](Cc1c[nH]c2ccccc12)NC(=O)[C@H](CC(=O)O)NC(=O)CNC(=O)[C@H](CCCN=C(N)N)NC(=O)CCS)C(N)=O ([Mpa]RGDWR[Pen]-NH2)", "=", 6.55],
  ["N=C(N)c1ccc2[nH]c(C(=O)NCCCCCCC(=O)O)cc2c1", "=", 5.57],
  ["N=C(N)c1ccc2[nH]c(C(=O)NCCCCCC(=O)O)cc2c1", "<", 4.00],
  ["N=C(N)c1ccc2[nH]cc(C(=O)NCCCCCCC(=O)O)c2c1", "<", 4.00],
  ["N=C(N)c1cccc(NCC(=O)NCCCCCCC(=O)O)c1", "<", 4.00],
  ["N=C(N)c1ccc2c(C(=O)NCCCCCCC(=O)O)c[nH]c2c1", "=", 6.19],
  ["N=C(N)c1ccc2[nH]cc(C(=O)NCCCCCCCC(=O)O)c2c1", "<", 4.00],
  ["N=C(N)c1ccc(NCC(=O)NCCCCCCC(=O)O)cc1", "=", 4.17]
]}

Attribution: ChEMBL document CHEMBL1128907
